Here the recorded growth inhibition is given for each entry.
Test: NCI Yeast Anticancer Drug Screen. Data for the mec2-1 strain (AID 157)
Settings: S. cerevisiae mec2-1 strain, at 11.0 µM, stronger effect = higher value
Compounds without any hit were thinned out: in the full panel of roughly 79,000, 15% have a hit.
# unit: % | format: bare number

Worked examples, 6 compounds total:
Compound	growth inhibition [%]
Nc1nc(N)c2c(Cl)c(CNc3ccc(C(=O)NC(CC(=O)O)C(=O)O)cc3)ccc2n1 (stereo not given)	75
OC(c1ccc(Br)cc1)C(Cl)(Cl)Cl (stereo not given)	-1
CSC(=Nc1ccccc1)N(c1ccccc1)c1nc(=[N+](C)C)ss1	80
N#CC(C#N)=Cc1ccc(C#N)cc1	6
CCOC(=O)C1=C(C(=O)OCC)C2(c3ccccc3)N(O1)c1ccccc1C2(C)C (stereo not given)	-5
Oc1cccnc1[Se]	-3

Query (compound): CO[C@H](/C(C)=C/C=C/C(C)=C/c1coc(C)n1)[C@H](C)[C@H]1C[C@@H](O)[C@@]2(C)O[C@H]2/C=C/[C@@H](C)[C@@H]2C[C@@H](CC(=O)O2)C[C@H]2O[C@@H]2C(=O)O1 ; field requested: growth inhibition
-16

Query (compound): O=c1c2ccccc2[se]n1-c1cccnc1 ; field requested: growth inhibition
77

Query (compound): CC1CCC2(NC1)OC1CC3C4CCC5CC(OC6OC(CO)C(OC7OC(CO)C(O)C(OC8OCC(O)C(O)C8O)C7OC7OC(CO)C(O)C(O)C7O)C(O)C6O)CCC5(C)C4CCC3(C)C1C2C (stereo not given) ; field requested: growth inhibition
-15

Query (compound): Nc1ccc(Cl)cc1C(=O)c1ccccc1 ; field requested: growth inhibition
-18

###

Assay: NCI Yeast Anticancer Drug Screen. Data for the mec2-1 strain (AID 157)
Conditions: S. cerevisiae mec2-1 strain, at 100.0 µM, stronger effect = higher value
This is part of a sample that, as a whole, favours compounds with a hit. Of some 79,000 tested, about 15% had one in any assay.
Here the recorded growth inhibition is given for each entry.
# unit: % | format: bare number

Worked examples, 10 compounds total:
> print(dat)
                                    compound      quantity.kind  endpoint.value
 1  OCC(O)C(O)CO (stereo unspecified) (tested in a mixture with another compound)  growth inhibition               3
 2  CCOC(=O)C1=C(C(=O)OCC)C2(c3ccccc3)N(O1)c1ccccc1C2(C)C (stereo unspecified)  growth inhibition              74
 3  CN(C)CCSC1=Nc2ccc(Cl)cc2C(c2ccccc2Cl)=NC1  growth inhibition              33
 4  O=[N+]([O-])c1ccc(C=Cc2ccccc2)cc1.[C-]#[O+].[C-]#[O+].[C-]#[O+].[Cr]  growth inhibition              72
 5  CCCN(CCC)c1c([N+](=O)[O-])cc(S(N)(=O)=O)cc1[N+](=O)[O-]  growth inhibition              -2
 6  O=C1C2CC(Cl)C(SSC3CC4C(=O)N(SC(Cl)(Cl)C(Cl)Cl)C(=O)C4CC3Cl)CC2C(=O)N1SC(Cl)(Cl)C(Cl)Cl (stereo unspecified)  growth inhibition              94
 7  O=[N+]([O-])c1ccc(N2CCC(CCCC3CCN(c4ccc([N+](=O)[O-])cc4[N+](=O)[O-])CC3)CC2)c([N+](=O)[O-])c1  growth inhibition              -8
 8        CCCCCNC(=O)c1c(O)[nH]c(=S)[nH]c1=O  growth inhibition              92
 9  O=C(O)C1C2CCC(C2)C1c1ccccc1 (stereo unspecified)  growth inhibition              31
10             CC1=C(N2CC2)C(=O)c2ccccc2C1=O  growth inhibition              49

Query (compound): CC1=C(O)C(=O)C=C2C1=CC=C1[C@@]2(C)CCC2(C)[C@@H]3C[C@@H](C)C(=O)C[C@]3(C)CC[C@]12C (stereo partly specified) ; field requested: growth inhibition
96

Query (compound): CC1=C2C(=C[C@@](C)(CO)[C@@H]2O)C(=O)[C@](C)(O)C12CC2 ; field requested: growth inhibition
48

Query (compound): CCOC(=O)C1C2c3ccccc3C(c3ccccc32)C1C(=O)OCC (stereo unspecified) ; field requested: growth inhibition
89

Query (compound): CC(=O)O/C(=C1\C[C@H]2[C@@H]3CC=C4C[C@@H](OC(C)=O)CC[C@]4(C)[C@H]3CC[C@]2(C)C1=O)C(F)(F)F ; field requested: growth inhibition
14

Query (compound): O=c1oc2ccccc2c(O)c1C(c1ccc2ccccc2c1)c1c(O)c2ccccc2oc1=O ; field requested: growth inhibition
98

Query (compound): NCCc1ccc(OCc2ccccc2)c(OCc2ccccc2)c1 ; field requested: growth inhibition
98

Query (compound): N#CC(C#N)=Cc1ccc(C#N)cc1 ; field requested: growth inhibition
7

Query (compound): COC(=O)C1=C(C(=O)OC)C2OC1c1cc3ccccc3cc12 ; field requested: growth inhibition
99

Query (compound): COc1cc2ccccc2c2cc([N+](=O)[O-])oc12 ; field requested: growth inhibition
78

Query (compound): CN(C)CCC(C(=O)C(Br)Br)(c1ccccc1)c1ccccc1 ; field requested: growth inhibition
100
